Target: T1, Human IL2Rγ extracellular domain expressed with a C-terminal myc-myc-hexahistidine tag (human)
T1 construct: also called hIL-2Rg-MMH; hIL-2RG-MMH
T1 chain: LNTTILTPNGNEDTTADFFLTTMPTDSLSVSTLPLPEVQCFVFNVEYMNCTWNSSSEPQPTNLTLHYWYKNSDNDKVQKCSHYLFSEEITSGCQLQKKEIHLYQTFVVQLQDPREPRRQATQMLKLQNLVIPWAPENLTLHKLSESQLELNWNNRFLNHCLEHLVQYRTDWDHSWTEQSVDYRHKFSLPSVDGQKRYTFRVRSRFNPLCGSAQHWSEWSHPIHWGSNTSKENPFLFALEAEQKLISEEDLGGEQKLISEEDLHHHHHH
Test: SPR, captured mAb, 37C, dissociation pH 7.4
Property: t1/2; scope: individual binders
Value expressed in min; do not type the unit.

Guide cases for t1/2, answers given:
H4H12874P (antibody, human IgG4 S228P, kappa, V domains shown, anti-IL2Rgamma mAb expressed with human IgG4 Fc) VH: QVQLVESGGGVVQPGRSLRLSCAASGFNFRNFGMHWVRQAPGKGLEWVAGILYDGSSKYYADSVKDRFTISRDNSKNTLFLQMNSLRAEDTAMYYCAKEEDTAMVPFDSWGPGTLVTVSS VL: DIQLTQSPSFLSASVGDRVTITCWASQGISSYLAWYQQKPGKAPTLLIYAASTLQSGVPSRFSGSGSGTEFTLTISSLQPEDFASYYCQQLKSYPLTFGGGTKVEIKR: 20
H4H12900P (antibody, human IgG4 S228P, kappa, V domains shown, anti-IL2Rgamma mAb expressed with human IgG4 Fc) VH: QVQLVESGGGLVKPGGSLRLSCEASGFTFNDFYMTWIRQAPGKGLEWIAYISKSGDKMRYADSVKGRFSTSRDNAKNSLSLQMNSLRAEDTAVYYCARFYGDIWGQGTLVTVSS VL: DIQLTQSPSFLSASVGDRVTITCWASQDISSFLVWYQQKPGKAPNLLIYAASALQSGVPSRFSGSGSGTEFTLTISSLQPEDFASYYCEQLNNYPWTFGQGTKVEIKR: 16

H4H12884P (antibody, human IgG4 S228P, kappa, V domains shown, anti-IL2Rgamma mAb expressed with human IgG4 Fc) VH: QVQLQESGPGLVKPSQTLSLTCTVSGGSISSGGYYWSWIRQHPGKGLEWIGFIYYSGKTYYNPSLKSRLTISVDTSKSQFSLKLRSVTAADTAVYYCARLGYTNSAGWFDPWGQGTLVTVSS VL: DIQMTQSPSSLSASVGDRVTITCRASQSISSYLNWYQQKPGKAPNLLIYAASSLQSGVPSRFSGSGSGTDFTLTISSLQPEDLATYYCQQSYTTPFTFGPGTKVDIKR has a reported t1/2 of 8
